STUDY TARGET: Prothrombin (Homo sapiens)
MEASURE: Ki (nM)

                                   compound  unit_symbol  meas_value
0  CN1CC(C)(COc2ccc(C(=N)N)cc2)Oc2ccc(N(CC(=O)O)Cc3ccc(F)c(F)c3)cc21 (stereo not given)           nM         330
1  CCOC(=O)CN(Cc1ccc(F)c(F)c1)c1ccc2c(c1)N(C)CC(C)(COc1ccc(C(=N)N)cc1)O2 (stereo not given)           nM         830
2  CN1CC(C)(COc2ccc(C(=N)N)cc2)Oc2cc(N(CC(=O)O)Cc3ccc(F)c(F)c3)ccc21 (stereo not given)           nM         810
3  CCOC(=O)CN(Cc1ccccc1)c1ccc2c(c1)OC(C)(COc1ccc(C(=N)N)cc1)CN2C (stereo not given)           nM         320
4  CN1CC(C)(COc2ccc(C(=N)N)cc2)Oc2ccc(N(CC(=O)O)Cc3cccc(F)c3)cc21 (stereo not given)           nM         670
